Overview of recorded residual activity for various molecules
# subject.of.test: TBK1 (human) (UniProt Q9UHD2)
# Sequence (Q9UHD2 whole entry, looked up): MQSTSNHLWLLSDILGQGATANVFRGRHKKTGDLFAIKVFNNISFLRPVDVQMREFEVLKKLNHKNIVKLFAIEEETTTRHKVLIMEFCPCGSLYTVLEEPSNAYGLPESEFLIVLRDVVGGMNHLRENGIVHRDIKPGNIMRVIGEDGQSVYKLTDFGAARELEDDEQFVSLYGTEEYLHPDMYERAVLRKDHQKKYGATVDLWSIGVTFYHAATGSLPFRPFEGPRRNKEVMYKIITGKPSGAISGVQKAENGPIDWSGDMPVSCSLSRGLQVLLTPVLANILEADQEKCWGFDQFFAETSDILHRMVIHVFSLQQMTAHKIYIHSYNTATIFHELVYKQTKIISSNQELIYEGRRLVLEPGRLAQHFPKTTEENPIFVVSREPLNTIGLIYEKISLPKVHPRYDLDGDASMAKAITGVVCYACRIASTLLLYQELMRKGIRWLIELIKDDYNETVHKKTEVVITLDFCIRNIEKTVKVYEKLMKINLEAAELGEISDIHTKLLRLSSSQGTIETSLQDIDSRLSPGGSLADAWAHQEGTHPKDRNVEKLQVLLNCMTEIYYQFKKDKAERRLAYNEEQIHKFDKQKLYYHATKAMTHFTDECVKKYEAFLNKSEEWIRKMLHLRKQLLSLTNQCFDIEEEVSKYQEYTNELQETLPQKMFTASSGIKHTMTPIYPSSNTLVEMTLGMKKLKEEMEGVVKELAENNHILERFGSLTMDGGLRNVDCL
# assay.details: radiometric filter-binding kinase assay, Kinase HotSpot
# assay.context: compound 0.5 µM; ATP 10 µM
Express it in %; write the number only.

Oc1ccc(Nc2nc(-c3ccc(Cl)cc3)cs2)cc1	95.2
O=C(Nc1cccc(Nc2cc(Nc3cccc(C(F)(F)F)c3)ncn2)c1)C1CC1	99
O=C1Nc2ccccc2/C1=C1\Nc2ccccc2\C1=N/O	53.6
CCn1cnc2c(Nc3cccc(Cl)c3)nc(N[C@@H]3CCCC[C@@H]3N)nc21	92.8
COc1ccc(OC)c2c(=S)c3ccccc3[nH]c12	97.5

// switching to the query molecule
What value of residual activity has been recorded for this entry: "O=C(O)/C=C/c1cc(Br)c(Br)c(Br)c1Br" 91.4
